Test system: Staphylococcus aureus (Y-8)
measure-name: MIC (µg/mL)
Give bare numbers, in µg/mL.

Some entries whose results are on file:
[[record]]
compound = "Cn1nnnc1SCC1=C(C(=O)O)N2C(=O)C(NC(=O)[C@H](NC(=O)c3cnc4c(c3O)C(=O)CCC4)c3ccc(O)cc3)C2SC1 (single isomer, unassigned) [Synthesis Example 2]"
measure_name = "MIC"
result_units = "µg/mL"
numeric_result = 3.13

[[record]]
compound = "Cn1nnnc1SCC1=C(C(=O)O)N2C(=O)C(NC(=O)[C@H](NC(=O)c3cnc4c(c3O)C(=O)CCC4)c3ccccc3)C2SC1 (single isomer, unassigned) [Synthesis Example 1]"
measure_name = "MIC"
result_units = "µg/mL"
numeric_result = 3.13


Please look at the items below and tell me MIC for each one, in order.
1. CC1(C)S[C@@H]2[C@H](NC(=O)C(C(=O)O)c3ccccc3)C(=O)N2[C@H]1C(=O)O (stereo partly drawn) [CB-PC, disodium-α-carboxybenzyl penicillin, reference compound]
2. Cc1nnc(SCC2=C(C(=O)O)N3C(=O)[C@@H](NC(=O)Cn4cnnn4)[C@H]3SC2)s1 [CEZ, reference compound]

Output:
[12.5, 0.78]

---

Please consider the recorded MIC for Bacillus cereus (IAM 1792) in what follows.
One number for each entry, in µg/mL.

[[record]]
molecule = "Cc1nnc(SCC2=C(C(=O)O)N3C(=O)[C@@H](NC(=O)Cn4cnnn4)[C@H]3SC2)s1 [CEZ, reference compound]"
system = "Bacillus cereus (IAM 1792)"
measure_name = "MIC"
numeric_result = 100

[[record]]
molecule = "Cn1nnnc1SCC1=C(C(=O)O)N2C(=O)C(NC(=O)[C@H](NC(=O)c3cnc4c(c3O)C(=O)CCC4)c3ccccc3)C2SC1 (single isomer, unassigned) [Synthesis Example 1]"
system = "Bacillus cereus (IAM 1792)"
measure_name = "MIC"
numeric_result = 25

[[record]]
molecule = "CC1(C)S[C@@H]2[C@H](NC(=O)C(C(=O)O)c3ccccc3)C(=O)N2[C@H]1C(=O)O (stereo partly drawn) [CB-PC, disodium-α-carboxybenzyl penicillin, reference compound]"
system = "Bacillus cereus (IAM 1792)"
measure_name = "MIC"
numeric_result = 100


API: the following record is the query input.
Task: State the recorded MIC for this entry: Cn1nnnc1SCC1=C(C(=O)O)N2C(=O)C(NC(=O)[C@H](NC(=O)c3cnc4c(c3O)C(=O)CCC4)c3ccc(O)cc3)C2SC1 (single isomer, unassigned) [Synthesis Example 2]
Output: 12.5

---

protocol-notes: blood level in rats after intramuscular administration
Type: in vivo
condition-context: rat, im, 20 mg/kg i.m., serum, 30 minutes, read-out: Blood level after administration (average value ± standard deviation)
measure-name: concentration at 0.5 h (ng/mL)
Give bare numbers, in ng/mL.

[[record]]
compound = "Cn1nnnc1SCC1=C(C(=O)O)N2C(=O)C(NC(=O)[C@H](NC(=O)c3cnc4c(c3O)C(=O)CCC4)c3ccccc3)C2SC1 (single isomer, unassigned) [Synthesis Example 1]"
numeric_result = 10500


Task: State the recorded concentration at 0.5 h for this entry: Cn1nnnc1SCC1=C(C(=O)O)N2C(=O)C(NC(=O)[C@H](NC(=O)c3cnc4c(c3O)C(=O)CCC4)c3ccc(O)cc3)C2SC1 (single isomer, unassigned) [Synthesis Example 2]
Output: 14400

---

Please consider the recorded MIC for Proteus morganii (C-39) in what follows.
One number for each entry, in µg/mL.

[[record]]
molecule = "CC1(C)S[C@@H]2[C@H](NC(=O)C(C(=O)O)c3ccccc3)C(=O)N2[C@H]1C(=O)O (stereo partly drawn) [CB-PC, disodium-α-carboxybenzyl penicillin, reference compound]"
numeric_result = 6.25

[[record]]
molecule = "Cn1nnnc1SCC1=C(C(=O)O)N2C(=O)C(NC(=O)[C@H](NC(=O)c3cnc4c(c3O)C(=O)CCC4)c3ccccc3)C2SC1 (single isomer, unassigned) [Synthesis Example 1]"
numeric_result = 3.13


API: the following record is the query input.
Task: State the recorded MIC for this entry: Cn1nnnc1SCC1=C(C(=O)O)N2C(=O)C(NC(=O)[C@H](NC(=O)c3cnc4c(c3O)C(=O)CCC4)c3ccc(O)cc3)C2SC1 (single isomer, unassigned) [Synthesis Example 2]
Output: 3.13
